Molecular target: 3',5'-cyclic-AMP phosphodiesterase 4A (Homo sapiens, UniProt P27815)
Sequence (P27815 whole entry): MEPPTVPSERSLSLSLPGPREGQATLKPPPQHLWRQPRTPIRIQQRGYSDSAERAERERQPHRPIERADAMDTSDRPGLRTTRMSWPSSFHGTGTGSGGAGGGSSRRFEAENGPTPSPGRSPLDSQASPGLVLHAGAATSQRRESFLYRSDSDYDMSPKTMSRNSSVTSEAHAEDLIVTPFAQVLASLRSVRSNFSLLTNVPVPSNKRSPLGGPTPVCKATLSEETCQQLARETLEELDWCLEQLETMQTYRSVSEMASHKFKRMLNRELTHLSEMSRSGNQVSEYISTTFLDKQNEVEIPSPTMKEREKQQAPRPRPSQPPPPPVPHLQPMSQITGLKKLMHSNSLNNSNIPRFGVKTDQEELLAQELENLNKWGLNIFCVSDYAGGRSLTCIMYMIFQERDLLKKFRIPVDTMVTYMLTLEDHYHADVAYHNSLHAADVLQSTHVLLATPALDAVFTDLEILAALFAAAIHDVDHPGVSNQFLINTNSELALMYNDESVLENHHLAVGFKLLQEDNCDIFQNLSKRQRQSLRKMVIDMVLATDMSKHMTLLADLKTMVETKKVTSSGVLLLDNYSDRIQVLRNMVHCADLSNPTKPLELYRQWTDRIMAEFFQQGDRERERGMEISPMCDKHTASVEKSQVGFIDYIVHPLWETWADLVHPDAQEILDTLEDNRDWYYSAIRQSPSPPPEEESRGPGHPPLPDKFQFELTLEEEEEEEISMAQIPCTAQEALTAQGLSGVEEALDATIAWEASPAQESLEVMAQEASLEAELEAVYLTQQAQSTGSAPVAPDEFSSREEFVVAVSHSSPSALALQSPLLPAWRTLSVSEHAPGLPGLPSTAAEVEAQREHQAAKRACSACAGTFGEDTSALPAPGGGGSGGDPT
Assay: Inhibition of [3H]cAMP binding to recombinant human Phosphodiesterase 4AL (PDE4AL) in baculovirus expression system

Compound	Ki
COc1ccc(Cn2cnc(N)c3nc(C(C)(C)COc4ccc(C(=O)O)cc4)nc2-3)cc1OC1CCCC1	> 50 µM
CC1CC(=O)NN=C1c1ccc(-n2ccnc2)cc1 (stereo unspecified)	> 50 µM
COC(=O)c1ccc(OCC(C)(C)c2nc3c(N)ncn(Cc4ccc(OC)c(OC5CCCC5)c4)c-3n2)cc1	0.103 µM
CCNc1ncn(Cc2ccc(OC)c(OC3CCCC3)c2)c2nc(C(C)C)nc1-2	3.9 µM
COc1ccc(Cn2cnc(N)c3nc(C(C)(C)COc4ccc(C(N)=O)cc4)nc2-3)cc1OC1CCCC1	0.155 µM
COc1cccc(OC[C@H](C)c2nc3c(N)ncn(Cc4ccc(OC)c(OC5CCCC5)c4)c-3n2)c1	5.2 µM
